- SYSTEM NAME: DAPK3 (human) (UniProt O43293)
- Sequence (O43293 whole entry, looked up): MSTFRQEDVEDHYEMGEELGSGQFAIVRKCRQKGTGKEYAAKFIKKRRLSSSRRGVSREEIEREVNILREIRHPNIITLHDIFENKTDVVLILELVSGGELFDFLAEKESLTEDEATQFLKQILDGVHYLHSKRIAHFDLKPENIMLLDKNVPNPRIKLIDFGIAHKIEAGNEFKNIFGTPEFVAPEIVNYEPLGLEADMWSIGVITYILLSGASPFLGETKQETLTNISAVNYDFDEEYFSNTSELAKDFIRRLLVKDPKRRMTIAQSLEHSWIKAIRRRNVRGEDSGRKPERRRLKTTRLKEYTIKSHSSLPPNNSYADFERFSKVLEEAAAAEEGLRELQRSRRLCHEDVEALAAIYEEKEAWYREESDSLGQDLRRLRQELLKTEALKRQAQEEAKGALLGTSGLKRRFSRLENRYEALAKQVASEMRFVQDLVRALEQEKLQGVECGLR
- METHOD NOTES: KINOMEscan competition binding
- MEASUREMENT CONTEXT: compound 10.0 µM
ASSAY METRIC: kinase still bound, per cent of control (%)

SMILES ENTRY | ASSAY METRIC | QUANTITATIVE READOUT
C=CC(=O)Nc1cccc(Oc2nc(Nc3ccc(N4CCN(C)CC4)cc3OC)ncc2Cl)c1 | kinase still bound, per cent of control | 7.4
CCCS(=O)(=O)Nc1ccc(F)c(C(=O)c2c[nH]c3ncc(-c4ccc(Cl)cc4)cc23)c1F | kinase still bound, per cent of control | 95
C[C@@H](Oc1cc(-n2cnc3ccc(CN4CCN(C)CC4)cc32)sc1C(N)=O)c1ccccc1C(F)(F)F | kinase still bound, per cent of control | 15
Nc1ccc(-c2ccc3ncc4ccc(=O)n(-c5cccc(C(F)(F)F)c5)c4c3c2)cn1 | kinase still bound, per cent of control | 81
N#Cc1c(NC(=O)c2cccc3ccccc23)sc2c1CCCC2 | kinase still bound, per cent of control | 88
C=CC(=O)Nc1cc(NC(=O)c2ccc(C)c(NC(=O)c3ccno3)c2)cc(C(F)(F)F)c1 | kinase still bound, per cent of control | 96
Cc1ccc2nc(NCCN)c3ncc(C)n3c2c1 | kinase still bound, per cent of control | 53
Cc1cc([C@@H](C)Nc2ccccc2C(=O)O)c2nc(N3CCOCC3)cc(=O)n2c1 | kinase still bound, per cent of control | 100
COc1cc(N2CCN(C)CC2)ccc1Nc1nc(N)c(C(=O)c2c(Cl)cccc2Cl)s1 | kinase still bound, per cent of control | 78

---

- SYSTEM NAME: PIP4K2B (human) (UniProt P78356)
- Sequence (P78356 whole entry, looked up): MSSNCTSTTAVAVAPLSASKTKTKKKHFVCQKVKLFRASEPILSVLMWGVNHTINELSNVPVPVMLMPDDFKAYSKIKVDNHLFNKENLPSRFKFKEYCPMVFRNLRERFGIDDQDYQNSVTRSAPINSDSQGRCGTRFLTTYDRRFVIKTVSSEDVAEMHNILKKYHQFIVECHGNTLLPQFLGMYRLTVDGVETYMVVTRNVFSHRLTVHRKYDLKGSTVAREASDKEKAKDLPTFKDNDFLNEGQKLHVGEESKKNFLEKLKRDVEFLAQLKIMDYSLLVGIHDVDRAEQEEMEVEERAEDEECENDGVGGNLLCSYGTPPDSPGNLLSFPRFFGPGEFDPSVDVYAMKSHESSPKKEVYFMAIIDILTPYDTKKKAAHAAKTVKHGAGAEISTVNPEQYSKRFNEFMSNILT
- METHOD NOTES: KINOMEscan competition binding
- MEASUREMENT CONTEXT: compound 10.0 µM

COMPOUND | RESULT UNIT | kinase still bound, per cent of control
CCOc1cc2ncc(C#N)c(Nc3ccc(OCc4ccccn4)c(Cl)c3)c2cc1NC(=O)/C=C/CN(C)C | % | 95
Cc1ccc(NC(=O)c2cccc(C(C)(C)C#N)c2)cc1Nc1ccc2ncn(C)c(=O)c2c1 | % | 100
O=C(NC1CC1)c1cccc(-c2ccc3c(NC(=O)C4CC4)n[nH]c3c2)c1 | % | 5.6
OCCCNc1cc(-c2ccnc(Nc3cccc(Cl)c3)n2)ccn1 | % | 100
Cc1ccc(C(=O)Nc2cccc(C(F)(F)F)c2)cc1Nc1cncc(C(N)=O)c1 | % | 100
N#Cc1c(NC(=O)c2cccc3ccccc23)sc2c1CCCC2 | % | 100
C[C@@H](Oc1cc(-n2cnc3ccc(CN4CCN(C)CC4)cc32)sc1C(N)=O)c1ccccc1C(F)(F)F | % | 5.8
O=C(O)c1ccc(Nc2ncc3c(n2)-c2ccc(Cl)cc2C(c2c(F)cccc2F)=NC3)cc1 | % | 100
COc1cc(C(=O)NC2CCN(C)CC2)ccc1Nc1ncc2c(n1)N(C1CCCC1)C(C)CC(=O)N2C (centres undefined) | % | 100
COc1cc(C(=O)NC2CCN(C)CC2)ccc1Nc1ncc2c(n1)N(C1CCCC1)CCC(=O)N2C(C)C | % | 100
CCC(=O)N1CCN(c2ccc(-n3c(=O)ccc4cnc5ccc(-c6cnc7ccccc7c6)cc5c43)cc2C(F)(F)F)CC1 | % | 100
Cc1cc([C@@H](C)Nc2ccccc2C(=O)O)c2nc(N3CCOCC3)cc(=O)n2c1 | % | 100
C=CC(=O)Nc1cccc(Nc2nc(N[C@H]3CC[C@H](N(C)C)CC3)nc3c2ncn3C(C)C)c1 | % | 54
O=C1Nc2ccc(I)cc2/C1=C/c1cc(Br)c(O)c(Br)c1 | % | 10
CC[C@@H]1C(=O)N(C)c2cnc(Nc3ccc(C(=O)NC4CCN(C)CC4)cc3OC)nc2N1C1CCCC1 | % | 100
CN(C)C/C=C/C(=O)Nc1cccc(Nc2ncc3c(n2)N(C)c2ccccc2C(=O)N3C)c1 | % | 36
CCN1CCN(Cc2ccc(Nc3ncc4c(n3)N(C)c3ccccc3C(=O)N4C)cc2C(F)(F)F)CC1 | % | 31
O=C(NOC[C@H](O)CO)c1ccc(F)c(F)c1Nc1ccc(I)cc1F | % | 100
Cc1ccc2nc(NCCN)c3ncc(C)n3c2c1 | % | 100

---

Known kinase still bound, per cent of control of a selection of compounds
- SYSTEM NAME: AKT1 (human) (UniProt P31749)
- Sequence (P31749 whole entry, looked up): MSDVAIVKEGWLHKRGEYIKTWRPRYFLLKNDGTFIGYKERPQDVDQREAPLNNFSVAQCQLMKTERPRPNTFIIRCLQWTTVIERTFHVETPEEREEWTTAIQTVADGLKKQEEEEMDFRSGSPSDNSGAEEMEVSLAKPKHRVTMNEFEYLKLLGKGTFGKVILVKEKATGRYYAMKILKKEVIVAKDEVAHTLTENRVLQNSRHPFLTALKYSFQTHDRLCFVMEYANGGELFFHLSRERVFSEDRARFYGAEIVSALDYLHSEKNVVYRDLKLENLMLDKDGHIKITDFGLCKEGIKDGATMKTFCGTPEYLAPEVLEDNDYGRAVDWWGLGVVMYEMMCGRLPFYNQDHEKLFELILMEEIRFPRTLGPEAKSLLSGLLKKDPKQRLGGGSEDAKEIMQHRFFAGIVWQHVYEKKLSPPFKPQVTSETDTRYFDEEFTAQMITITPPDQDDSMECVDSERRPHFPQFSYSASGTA
- METHOD NOTES: KINOMEscan competition binding
- MEASUREMENT CONTEXT: compound 10.0 µM
ASSAY METRIC: kinase still bound, per cent of control (%)

SMILES ENTRY | QUANTITATIVE READOUT
CCCS(=O)(=O)Nc1ccc(F)c(C(=O)c2c[nH]c3ncc(-c4ccc(Cl)cc4)cc23)c1F | 100
CCN1CCN(Cc2ccc(Nc3ncc4c(n3)N(C)c3ccccc3C(=O)N4C)cc2C(F)(F)F)CC1 | 100
Cc1ccc2nc(NCCN)c3ncc(C)n3c2c1 | 100
C=CC(=O)Nc1cccc(Nc2nc(N[C@H]3CC[C@H](N(C)C)CC3)nc3c2ncn3C(C)C)c1 | 93
Cc1ccc(NC(=O)c2cccc(C(C)(C)C#N)c2)cc1Nc1ccc2ncn(C)c(=O)c2c1 | 100
COc1cc(N2CCN(C)CC2)ccc1Nc1nc(N)c(C(=O)c2c(Cl)cccc2Cl)s1 | 100
CCOc1cc2ncc(C#N)c(Nc3ccc(OCc4ccccn4)c(Cl)c3)c2cc1NC(=O)/C=C/CN(C)C | 98
CCC(=O)N1CCN(c2ccc(-n3c(=O)ccc4cnc5ccc(-c6cnc7ccccc7c6)cc5c43)cc2C(F)(F)F)CC1 | 91
O=C(NOC[C@H](O)CO)c1ccc(F)c(F)c1Nc1ccc(I)cc1F | 81

---

- SYSTEM NAME: PKN1 (human)
- METHOD NOTES: KINOMEscan competition binding
- MEASUREMENT CONTEXT: compound 10.0 µM

MOLECULE | SYSTEM NAME | kinase still bound, per cent of control / %
C=CC(=O)Nc1cc(NC(=O)c2ccc(C)c(NC(=O)c3ccno3)c2)cc(C(F)(F)F)c1 | PKN1 (human) | 96
C[C@@H](Oc1cc(-n2cnc3ccc(CN4CCN(C)CC4)cc32)sc1C(N)=O)c1ccccc1C(F)(F)F | PKN1 (human) | 46
Cc1cc([C@@H](C)Nc2ccccc2C(=O)O)c2nc(N3CCOCC3)cc(=O)n2c1 | PKN1 (human) | 100
Cc1ccc(NC(=O)c2cccc(C(C)(C)C#N)c2)cc1Nc1ccc2ncn(C)c(=O)c2c1 | PKN1 (human) | 100
Cc1ccc2nc(NCCN)c3ncc(C)n3c2c1 | PKN1 (human) | 92
Cc1ccc(C(=O)Nc2cccc(C(F)(F)F)c2)cc1Nc1cncc(C(N)=O)c1 | PKN1 (human) | 100
COc1cc(C(=O)NC2CCN(C)CC2)ccc1Nc1ncc2c(n1)N(C1CCCC1)C(C)CC(=O)N2C (centres undefined) | PKN1 (human) | 100
N#Cc1c(NC(=O)c2cccc3ccccc23)sc2c1CCCC2 | PKN1 (human) | 94
O=C(O)c1ccc(Nc2ncc3c(n2)-c2ccc(Cl)cc2C(c2c(F)cccc2F)=NC3)cc1 | PKN1 (human) | 83

---

Reported kinase still bound, per cent of control values for the following compounds.
- SYSTEM NAME: CDK8 (human)
- METHOD NOTES: KINOMEscan competition binding
- MEASUREMENT CONTEXT: compound 10.0 µM
ASSAY METRIC: kinase still bound, per cent of control (%)

SMILES ENTRY | ASSAY METRIC | RESULT UNIT | QUANTITATIVE READOUT
N#Cc1c(NC(=O)c2cccc3ccccc23)sc2c1CCCC2 | kinase still bound, per cent of control | % | 100
CN(C)C/C=C/C(=O)Nc1cccc(Nc2ncc3c(n2)N(C)c2ccccc2C(=O)N3C)c1 | kinase still bound, per cent of control | % | 100
Cc1cc([C@@H](C)Nc2ccccc2C(=O)O)c2nc(N3CCOCC3)cc(=O)n2c1 | kinase still bound, per cent of control | % | 79
CCCS(=O)(=O)Nc1ccc(F)c(C(=O)c2c[nH]c3ncc(-c4ccc(Cl)cc4)cc23)c1F | kinase still bound, per cent of control | % | 4.6
Nc1ccc(-c2ccc3ncc4ccc(=O)n(-c5cccc(C(F)(F)F)c5)c4c3c2)cn1 | kinase still bound, per cent of control | % | 100

---

- SYSTEM NAME: MAK (human) (UniProt P20794)
- Sequence (P20794 whole entry, looked up): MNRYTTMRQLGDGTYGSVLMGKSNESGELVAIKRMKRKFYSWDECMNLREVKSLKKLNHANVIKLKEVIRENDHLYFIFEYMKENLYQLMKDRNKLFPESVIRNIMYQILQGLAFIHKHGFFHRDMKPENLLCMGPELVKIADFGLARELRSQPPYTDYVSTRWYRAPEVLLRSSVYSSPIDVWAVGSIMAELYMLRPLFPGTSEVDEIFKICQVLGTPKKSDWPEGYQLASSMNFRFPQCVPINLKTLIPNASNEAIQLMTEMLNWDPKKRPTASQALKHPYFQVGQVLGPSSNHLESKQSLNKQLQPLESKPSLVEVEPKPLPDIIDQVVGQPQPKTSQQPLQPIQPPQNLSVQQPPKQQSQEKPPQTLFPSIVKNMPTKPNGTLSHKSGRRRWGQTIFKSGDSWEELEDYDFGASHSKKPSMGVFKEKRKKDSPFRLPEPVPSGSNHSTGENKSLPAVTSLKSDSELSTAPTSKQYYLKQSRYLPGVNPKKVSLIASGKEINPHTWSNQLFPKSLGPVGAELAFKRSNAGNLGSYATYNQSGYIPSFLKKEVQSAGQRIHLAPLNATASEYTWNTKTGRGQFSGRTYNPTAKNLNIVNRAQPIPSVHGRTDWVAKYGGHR
- METHOD NOTES: KINOMEscan competition binding
- MEASUREMENT CONTEXT: compound 10.0 µM
Measured kinase still bound, per cent of control values are reported for all entries that follow.

SMILES ENTRY | kinase still bound, per cent of control
Cc1cc([C@@H](C)Nc2ccccc2C(=O)O)c2nc(N3CCOCC3)cc(=O)n2c1 | 67%
COc1cc(N2CCN(C)CC2)ccc1Nc1nc(N)c(C(=O)c2c(Cl)cccc2Cl)s1 | 26%
C=CC(=O)Nc1cc(NC(=O)c2ccc(C)c(NC(=O)c3ccno3)c2)cc(C(F)(F)F)c1 | 84%
OCCCNc1cc(-c2ccnc(Nc3cccc(Cl)c3)n2)ccn1 | 4.6%
CCOc1cc2ncc(C#N)c(Nc3ccc(OCc4ccccn4)c(Cl)c3)c2cc1NC(=O)/C=C/CN(C)C | 100%
COc1cc(C(=O)NC2CCN(C)CC2)ccc1Nc1ncc2c(n1)N(C1CCCC1)CCC(=O)N2C(C)C | 100%
O=C(NC1CC1)c1cccc(-c2ccc3c(NC(=O)C4CC4)n[nH]c3c2)c1 | 51%
O=C1Nc2ccc(I)cc2/C1=C/c1cc(Br)c(O)c(Br)c1 | 100%
N#Cc1c(NC(=O)c2cccc3ccccc23)sc2c1CCCC2 | 56%
Nc1ccc(-c2ccc3ncc4ccc(=O)n(-c5cccc(C(F)(F)F)c5)c4c3c2)cn1 | 96%
C[C@@H](Oc1cc(-n2cnc3ccc(CN4CCN(C)CC4)cc32)sc1C(N)=O)c1ccccc1C(F)(F)F | 100%
Cc1ccc(NC(=O)c2cccc(C(C)(C)C#N)c2)cc1Nc1ccc2ncn(C)c(=O)c2c1 | 100%
CN(C)C/C=C/C(=O)Nc1cccc(Nc2ncc3c(n2)N(C)c2ccccc2C(=O)N3C)c1 | 100%
O=C(NOC[C@H](O)CO)c1ccc(F)c(F)c1Nc1ccc(I)cc1F | 100%
CCC(=O)N1CCN(c2ccc(-n3c(=O)ccc4cnc5ccc(-c6cnc7ccccc7c6)cc5c43)cc2C(F)(F)F)CC1 | 68%
CCN1CCN(Cc2ccc(Nc3ncc4c(n3)N(C)c3ccccc3C(=O)N4C)cc2C(F)(F)F)CC1 | 100%
Cc1ccc2nc(NCCN)c3ncc(C)n3c2c1 | 100%
CCCS(=O)(=O)Nc1ccc(F)c(C(=O)c2c[nH]c3ncc(-c4ccc(Cl)cc4)cc23)c1F | 100%
C=CC(=O)Nc1cccc(Nc2nc(N[C@H]3CC[C@H](N(C)C)CC3)nc3c2ncn3C(C)C)c1 | 100%
O=C(O)c1ccc(Nc2ncc3c(n2)-c2ccc(Cl)cc2C(c2c(F)cccc2F)=NC3)cc1 | 78%
Cn1c(=O)n(-c2ccc(C(C)(C)C#N)cc2)c2c3cc(-c4cnc5ccccc5c4)ccc3ncc21 | 100%
